- Subject Of Test: κ-opioid (KOP) receptor (Homo sapiens)
- Sequence (P41145 whole entry, canonical isoform): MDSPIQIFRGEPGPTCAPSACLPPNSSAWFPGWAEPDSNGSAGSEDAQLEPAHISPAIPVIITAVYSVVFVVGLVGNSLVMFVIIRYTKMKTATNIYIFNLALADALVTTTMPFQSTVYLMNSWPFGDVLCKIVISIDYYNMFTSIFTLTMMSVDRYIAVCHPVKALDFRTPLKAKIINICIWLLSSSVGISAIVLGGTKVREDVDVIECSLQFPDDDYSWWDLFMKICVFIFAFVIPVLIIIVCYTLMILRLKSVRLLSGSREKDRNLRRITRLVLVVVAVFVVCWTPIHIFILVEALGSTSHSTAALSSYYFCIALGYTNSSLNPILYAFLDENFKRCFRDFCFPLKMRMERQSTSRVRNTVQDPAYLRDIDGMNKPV
- Method Summary: CEREP/Bioprint binding assay panel (human isoforms)
pKi: −log10 of the molar value.
Observed Property: pKi

In [3]: df
Out[3]:
                                     smiles                         subject_of_test  test_value
0  COc1c(F)cccc1C(=O)N1C[C@@H](C)CC[C@H]1CNc1ccc(Br)cn1  κ-opioid (KOP) receptor (Homo sapiens)        6.50
